Data origin, for the record: patent US20210238260

I'd be grateful if you could share measured kcat/KM for these entries.
- experimental.target: Factor X (FX), P00742
- Sequence (P00742 whole entry, looked up): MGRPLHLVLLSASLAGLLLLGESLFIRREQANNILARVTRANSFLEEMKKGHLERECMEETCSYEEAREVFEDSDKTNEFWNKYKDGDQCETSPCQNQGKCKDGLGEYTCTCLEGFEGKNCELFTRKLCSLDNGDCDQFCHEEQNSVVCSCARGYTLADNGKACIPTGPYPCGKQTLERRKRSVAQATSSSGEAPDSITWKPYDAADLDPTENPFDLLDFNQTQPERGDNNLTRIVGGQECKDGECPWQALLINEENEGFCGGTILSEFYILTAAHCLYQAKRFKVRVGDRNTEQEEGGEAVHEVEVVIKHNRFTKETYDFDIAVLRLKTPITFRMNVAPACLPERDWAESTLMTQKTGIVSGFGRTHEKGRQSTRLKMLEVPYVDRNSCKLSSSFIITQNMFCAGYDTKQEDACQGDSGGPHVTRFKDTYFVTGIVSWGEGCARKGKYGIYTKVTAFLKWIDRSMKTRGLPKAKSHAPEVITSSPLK
Field format: number, assumed M⁻¹ s⁻¹, no unit text.

Enquiry: Quick check: kcat/KM of FIXa variant A103N/N105S/R318Y/R338E/R403E/E410N (protein) chain 1: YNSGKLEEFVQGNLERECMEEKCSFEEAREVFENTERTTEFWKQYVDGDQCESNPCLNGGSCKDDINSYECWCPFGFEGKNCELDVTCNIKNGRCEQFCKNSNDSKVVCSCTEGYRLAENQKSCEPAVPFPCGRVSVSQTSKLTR chain 2: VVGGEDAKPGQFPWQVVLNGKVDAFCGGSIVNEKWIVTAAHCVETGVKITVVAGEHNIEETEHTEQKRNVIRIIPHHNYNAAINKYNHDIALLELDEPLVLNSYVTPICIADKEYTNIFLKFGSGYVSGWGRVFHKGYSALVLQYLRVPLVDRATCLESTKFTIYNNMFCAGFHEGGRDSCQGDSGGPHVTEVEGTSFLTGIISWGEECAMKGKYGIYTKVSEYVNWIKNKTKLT ?
Return: 1.5e+08

Enquiry: Moving on to FIXa variant D104N/K106S/Y155F/R318Y/R338E/R403E/E410N (protein) chain 1: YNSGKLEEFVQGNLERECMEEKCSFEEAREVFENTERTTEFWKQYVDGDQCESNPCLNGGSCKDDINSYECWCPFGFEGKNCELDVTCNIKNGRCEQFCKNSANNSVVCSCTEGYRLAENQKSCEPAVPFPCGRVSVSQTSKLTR chain 2: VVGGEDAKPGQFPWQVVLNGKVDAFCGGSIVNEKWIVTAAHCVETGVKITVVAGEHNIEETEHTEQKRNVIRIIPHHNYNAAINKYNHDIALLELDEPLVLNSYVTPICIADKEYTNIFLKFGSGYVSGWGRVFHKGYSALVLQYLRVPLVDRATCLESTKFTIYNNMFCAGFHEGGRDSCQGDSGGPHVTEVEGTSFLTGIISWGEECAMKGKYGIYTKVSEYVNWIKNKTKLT
Return: 1.8e+08
